# Tested on: MS2 coat protein
# EXPERIMENT_SUMMARY: apparent KD of MS2 coat protein; designed switch direction (-1 OFF switch, 1 ON switch): -1; higher = weaker reporter binding
# EXPERIMENTAL_PARAMETERS: input ligand: none
Reported apparent KD of MS2 coat protein is given for each of the following sequences.

SEQUENCE_ENTRY	apparent KD of MS2 coat protein, nM
GAAGGGCGUCUAGGAUAUAGUAUACGGCGAACAUGAGGAUCACCCAUGUGUCCGAAUGCGGCGAGCUAGAAGGAGAAUUCGCCC [Enuseszave] (Eterna round: R96, puzzle: Exclusion NG 2)	49.1
CGCAACACAUGAGGAUCAAACAUGAGGAUCACCCAUGUAUAACAAGCUUUUUGCUCGUCUUAUAAAUAUGUGUUGCG [Electric Eye 2 - Jieux - Sensor, turn-off variant 1] (Eterna round: R97, puzzle: Sensor, turn-off variant 1)	9.13
AACUGAUCUUGAGGAUAUCAAACACAUGAGGAUCACCCAUGUCACGAGACGGUGCUUUCCAGGAGUGAGAAGGUAAGCAGCGAG [Eternabot solution 44] (Eterna round: R96, puzzle: Exclusion NG 2)	37.1
CUAGCGAGUGUAGGAUAUCGGACUGUUUCAGUCUGAGAAGGACAUGAGGAUCACCCAUGUGAAGCUACGUGAGUAGCACGCUAG [JL ENG1 3.87] (Eterna round: R96, puzzle: Exclusion NG 1)	24.5
GCUCUUGGGCAAGGAUAUCCUGCGCGGUUCCGGUUCGUGUCUGUCACAUGAGGAUCACCCAUGUGGGAGAAGGUGCCUGCGGUG [Design 74] (Eterna round: R96, puzzle: Exclusion NG 2)	15.9
CGGCAUGUCUGAGGAUAUCUGCACGUGUAGUGCAGAGAAGGCAGAACAUGAGGAUCACCCAUGUAGAUCAUUAACCGAUUAAUU [ENG1/7-A3] (Eterna round: R96, puzzle: Exclusion NG 1)	184
UAUUUUAAAGUAAGGAUAUCGGUCCGAAAGGACUACGAGAAGGUACAUGAGGAUCACCCAUGUGAAAUAAGAAU [Mod of Zala 23 - Jieux - Brourd's Mod of Exclusion 4] (Eterna round: R97, puzzle: Brourd's mod of Exclusion 4)	15
UCCAUGUCAGGAUAUCUAAAGGUCCGAAAUAACGGUACUGCAGAGAAGGGACAUGAGGAUCACCCAUGUCCUCC [Exclusion 4 (Mod2 of Nando's EX4 C.22)] (Eterna round: R97, puzzle: Exclusion 4)	16
CGCUGGACAGGAUAUGUUCUUGGGCACUUGAGGAUCACCCAAGUCAUCGGGACAACAGGCACAGAAGGGUUUAUGG [salish99_ex5_r4_025] (Eterna round: R97, puzzle: Exclusion 5)	43.9
CCAAGCUUUUUCAUUAACAACAUGAGGAUCACCCAUGUGUAAGCUAUUAGGUUUGGGCUCUUUAGUGCUCGUCUUAU [JR_STOV1_Sub041] (Eterna round: R97, puzzle: Sensor, turn-off variant 1)	13.5
GUAACAACUAGAGGAUAUCAGCACGAUUAGUGCUGAGAAGGCUAGAGUUACAUGAGGAUCACCCAUGUCUAGAGAUCAUUAAUU [ENG1/13-A1] (Eterna round: R96, puzzle: Exclusion NG 1)	79.7
GGCACACAUGAGGAUCACCCAUGUGAGGAUAUGAGGCGAUCGUCGAUAGACGAUAGCCUUAGAAGGCACAUGCC [Mat - Exclusion 1 - Eli Mod - D11] (Eterna round: R97, puzzle: Exclusion 1)	21.2
UUAUGAGAGCAGGAUAUCUUAUAAGUGUAUUAAAGAGAAGGGCUCACAUGAGGAUCACCCAUGUGGUCCUAGAU [LRO-Excl6-17-mod of 4.86 by jal] (Eterna round: R97, puzzle: Exclusion 6)	33.3
GGAUCGAAUGUGAGGAUAUGCUGGUCCUUGGAUCAGCAGAAGGCACAUGAGGAUCACCCAUGUCCAAACGGUCC [Eli bmx4 4.44] (Eterna round: R97, puzzle: Brourd's mod of Exclusion 4)	525
CGGAAAUCCAAGGAUAUGCUAGACGAAAGUCUAGCAGAAGGUGGAACAUGAGGAUCACCCAUGUGUCCAAUCCG [Mat - Exclusion 6 - Eli Mod - D25] (Eterna round: R97, puzzle: Exclusion 6)	14.5
AUUAUAUAGACAGGAUAUUGAUUAUUAUUUUAACAUGAGGAUCACCCAUGUAACCUUAUGUAUAGCAAGAAGGGUCAUUUAUUA [Title] (Eterna round: R96, puzzle: Exclusion NG 2)	75.6
CAUUGUUAUCGAGGAUAUCGUAUUGAGAUUCUACGAGAAGGCGGACUAAACAUGAGGAUCACCCAUGUGGGACGGAUGCUUGGG [Ex NG1 #31] (Eterna round: R96, puzzle: Exclusion NG 1)	28.1
UUUGCAAGCUUAAGAUCCCACAUGAGGAUCACCCAUGUUGCUGCCGUGAGGUAGCUUUUAACUUAUGCUCGUCUUAU [JL TOV1 3.46] (Eterna round: R97, puzzle: Sensor, turn-off variant 1)	115

====

# System: K4 kissing-loop RNA reporter
# EXPERIMENT_SUMMARY: apparent KD of K4 kissing-loop reporter; higher = weaker reporter binding
# EXPERIMENTAL_PARAMETERS: Eterna round: R107; input ligand: theophylline 20 uM

SEQUENCE_ENTRY	apparent KD of K4 kissing-loop reporter (nM)
AAAUGUUUGUAUUUGAACAAUUUCUUUAGGGAGGAUAUUGGUAAUACAAGAAGGCCCUGAUGGGAGUGAUGUUCCCAUAACGCGG [Exclusion FMN A GF15]	87.5
UGAUACCAGACUGAUACCAGCCAGUGAUGUUGGCUAAAACCAAAAGCUGGCAAAGCCAGCGGCCCUUGGCAGCAGUCUGGUAUCU [TheoBX 1 #SwitchBubble #StaticStem]	1010
ACGUAGUUCUAGGAUACCAGCCAAGGCGCAGGACAAAAGUCCUGCGUCGCCAGUGAUGUUGGCCCUUGGCAGCCUAGAACUACGA [Omei KL Theo B Exc B v12]	364
AAGUCAUAGGCAGGAUAUGCAUUGUAAUAAGGCAAUAUAUACGUAUAGAGUGAUGUUUUGUACCAGGCAGAAGGGCUACAUCAGU [FMN B Excl V10 (+5A/U)]	491
GGAUCCACCAGUGAUGUUGGAGAAAACUUCAAGGAUAUGACGAAAGUCAGAAGGUGGUAGACUGGACAAAGUCCGGUGGGAUCCA [FmnA10 U29+G78]	566
AAGGCCACGAGAAGGAGCGUGUUGUGGAGUGAUGUUCCACUGUAGACCUAAGGUCUACAGGCACAGGUAGGUCGCUCGUGGUCAA [Omei KL Arginine B SS A v6]	131

====

# Test system: K4 kissing-loop RNA reporter;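 also: bound reporter read as fluorescence of individual clusters on recovered sequencing chips by microscopy, with normalized cluster intensities fitted with a binding model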
# EXPERIMENT_SUMMARY: apparent KD of K4 kissing-loop reporter; higher = weaker reporter binding
# EXPERIMENTAL_PARAMETERS: Eterna round: R107; input ligand: tryptophan 2.4 mM
Catalogue of sequences with associated apparent KD of K4 kissing-loop reporter

SEQUENCE_ENTRY	apparent KD of K4 kissing-loop reporter [nM]
GGAGAGAACUGAAGGAGCGGCAAGAGAGAAGGAAAUAUAGUGAUGUUAUAUAAGAGAGAGAGCCAGGUAGGUCGCAGAGGGAGGA [ExArgB.A]	149
GGAGUUACCUGGGAUACCAGUCGGAGUCUCAGAGCUCGGAGUGAUGUUCUGGGAUGUUUCGGCCCUUGGCAGCUCUGGGACUCCU [#2 Exclusion - Theophylline B Attempt #17 (HarryS)]	512
GGAUAGGAUAGAGGAUAUGGAAAACACAGAAAUAACUUGUUGUGUUUAUCCAUAGGGAGUGAUGUUCCAGAAGGCUGUCCUAUCG [MatMod 20 - Jieux - Exclusion - FMN B]	151
AAUAUAGUGAUGUUAUAUAAGAAGGAGUUACGAGGACCGGUACGGCCGCCACUCGAAACGAGUGAGGAUUUGGGAGAUUGGGUCC [SSTryptA.K]	299
UGGUUUGGAAGUGAUGUUUCUAUAAGUGAUACCAGACAAAAGAAAGUCCCUUGGCAGCACAAUGAUGCCAAGGAAACGGCAUGAU [#15 K4 Theophylline A Same State]	150
AAAGCAUUGAGAAGGAGCGUGACGUGGAGUGAUGUUCCAUUGUAGUAAUAAUUACUACUAUCACAGGUAGGUCGCUCAUUGCUAA [JR_Nu_SSArginiB_Sub024]	180
CUGGGUUGACGAAAAGUCAACAAAUGAGAAGGAGCGCACGAAAGUGCAGGUAGGUCGCUCAGUCCAGUGAUGUUGGAUCAUCCAG [#SwitchBubble 10 #K4Late]	361
CGAUCUGAUAGCAGUGAUGUUGCUACAGAUACCAGUCCAGAUCGAGACCCUUGGCAGCUGACCCGGCAUGUGCUAUGGUAGAUCG [Theo A Ex t1]	146
AGGUGCUACGGAAGGAGCGCACCAGUGAUGUUGGUGUGUGACCGUGACAUGGCAGUCAAGGUGCAGGUAGGUCGCCGUGGCCAUA [Rigela]	136
UGGAGUUGACGAAAAGUCAACUCCUGAGAUACCAGUGACGAAAGUCACCCUUGGCAGCUCACUCCCAGUGAUGUUGGUUCAUAAG [#04 K4 Theophylline A Same State]	356
UGAUACCAGACUGAUACCAGCCAGUGAUGUUGGCUAAAACCAAAAGCUGGCAAAGCCAGCGGCCCUUGGCAGCAGUCUGGUAUCU [TheoBX 1 #SwitchBubble #StaticStem]	667
